Data provenance: patent US20230365667A1

Molecular target: T1, Abeta peptide (40-amino acid Abeta peptide, SEQ ID NO: 1), biotinylated (human, N-terminal biotin or C-terminal lysine-linked biotin, separated from the peptide by a PEG6 linker)
T1 construct: Synthesized by Genscript; also called amyloid beta; test peptide
T1 sequence (peptide, as listed by the source): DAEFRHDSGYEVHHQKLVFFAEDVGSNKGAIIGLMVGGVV
Test: BLI (Octet HTX), biotinylated Abeta on streptavidin sensors, 1 uM VHH, 1:1 fit
EXPERIMENTAL_READOUT: Kd (nM)
Respond with the bare value in nM.

Some solved cases for reference:
vhhLib05-14 (VHH, The entry as printed includes a doubled TLVTVSS and HHHHHH) VHH: EVQLLESGGGLVQPGGSLRLSCAASGFTFSSYAMSWVRQAPGKQREWVSAISGSGGSTYYADSVKGRFTISRDNSKNTLYLQMNSLRAEDTAVYYCARLSIVDVVTVFDVWGQGTLVTVSS ... 39.9
vhhLib02-91 (VHH, The entry as printed includes HHHHHH; also called 09BHK) VHH: EVQLVESGGGLVQPGGSLRLSCAASGFTVSDYHMSWYRQAPGKQRELVSVILSGGRTYYADSVKGRFTISRDNSKNTLYLQMNSLRAEDTAVYYCARADAIFPWFDVWGQGTLVTVSS ... 43.1

Returns the measured Kd for the input binder. Input: vhhLib01-3 (VHH, The entry as printed includes HHHHHH) VHH: QVQLVESGGGLVQPGGSLRLSCAASGSIFSFNLMGWYRQAPGKQRELVAAINSGGSTNYADSVKGRFTISRDNAKNTVYLQMNSLKPEDTAVYYCARDYTVYVSYYDGRFDYWGQGTLVTVSS
239
